- target-system: T1, human ANGPTL8 peptide (hANGPTL8 peptide, SEQ ID NO: 337) (human)
- T1 construct: also called N-terminal region ANGPTL8 peptide
- T1 peptide: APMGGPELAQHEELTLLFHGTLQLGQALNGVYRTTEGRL
- assay-method-text: SPR, captured mAb, 500 nM peptide, 25C
Each record here notes measured 500 nM hANGPTL8 peptide Bound (RU).
Give your result in RU as a bare value.

H4H15347P (antibody, human IgG4, V domains shown, H4H prefix: human IgG4 Fc) VH: EVQLVESGGGLVQPGGSLRLSCAASGFTFRNYAMNWARQAPGKGLEWVSGITGSGGATYYADSVKGRFTISRENSKNTLFLQMDTLRAEDTAVYYCAKDRRYFPTSGGPQWGQGTLVTVSS VL: DIVMTQSPLSLPVTPGEPASISCRSSRSLLHSSGYNYLDWYLQKPGQSPQLLLYLGSNRASGVPDRFSGSGSGTYFTLKISRVDAEDVGVYYCMQALQTPWTFGQGTKVEIK
0

Task: Look at this binder and give its reported 500 nM hANGPTL8 peptide Bound (RU). H4H15318P (antibody, human IgG4, V domains shown, H4H prefix: human IgG4 Fc) VH: QVQLVESGGGVVQPGRSLRLSCTASGFTFGNFGIHWVRQAPGKGLEWVAVISYDGTDKFYADPVKGRFIISRDNSMNILYLQMNSLRAEDTAVYYCAKDGEMELRGYYYYYGMDVWGQGTTVTVSS VL: DIQMTQSPSSVSASVGDRVTITCRASQGINTWLAWYQQKPGTAPKLLIFAASSLESGVPSRFSGSGFGTDFTLTISSLQSEDLATYFCQQVHSPPYTFGQGTKLEIK
Output: 0

Task: Look at this binder and give its reported 500 nM hANGPTL8 peptide Bound (RU). H4H15346P (antibody, human IgG4, V domains shown, H4H prefix: human IgG4 Fc) VH: EVQLVESGGGLVQPGGSLRLSCAASGFTFSNYAMSWVRQAPGKGLEWVSTISDTGGSTYYADSVKGRFALSRDNSRNTLYLQMNSLRAEDTAVYYCAKEGPPDYWGQGTLVTVSS VL: EIVLTQSPATLSLSPGERATLSCRTSQSVSIYLAWYQQKPGQAPRLLIYDASKRATGIPARFSGRGSGTDFTLTISSLEPEDFAVYYCQQRSNWPLTFGQGTRLEIK
Output: 0
